Origin of the recorded values: PubChem BioAssay (NCI)

assay: NCI Yeast Anticancer Drug Screen. Data for the cln2 rad14 strain (AID 165);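 note: 0% = growth equal to vehicle treated cultures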; settings: S. cerevisiae cln2 rad14 strain, at 50.0 µM, hits give high values
Compounds without any hit were thinned out: in the full panel of roughly 79,000, 15% have a hit.
Kindly state growth inhibition for each of the entries shown.
Give bare numbers, in %.

Answered examples (3):
COc1cc2cc[n+]3c(C)c4ccc(OC)c(OC)c4cc3c2cc1OC (tested in a mixture with another compound): -10.8
Cc1c(C)c(C)c(S(=O)(=O)NCCCNS(=O)(=O)c2c(C)c(C)c(C)c(C)c2C)c(C)c1C: 7.7
CC(=O)Nc1ccc(N(C)C)c(C)c1: -7.75

Please give growth inhibition for each item listed below.
1. CC(=O)c1sc2c(c1OC(=O)c1ccc(Cl)cc1)c(=O)n(-c1ccccc1)c(=S)n2-c1ccccc1
2. Cc1ccc(Nc2nc(=O)[nH]c(=O)[nH]2)cc1N
3. CC(C)OC(=O)NCc1cccs1
4. CCc1c(C)nc2cc(-c3cc(C)n4c(=O)c(CC)c(C)nc4c3)cc(C)n2c1=O
5. O=c1ccc2c(O)c([N+](=O)[O-])cc([N+](=O)[O-])c2[nH]1
6. CC(Br)C(=O)c1ccc2ncccc2c1 (stereo not given)

1. 7.95
2. 11.7
3. -92.8
4. 1.2
5. 8.85
6. -1.45

Supply reported growth inhibition belonging to this molecule: O=C(O)COc1cccc(O)c1
-13.1
